Data origin, for the record: PubChem BioAssay AID1845201

# Test system: COR L88 complex tumor spheroid viability
# Test details: Anticancer human tumor COR L88 cell line growth inhibition; active = viability on the fitted dose curve at most 10% of control; inactive = the rest;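 also: compound exposure lasted 7 days before viability readout; percent of DMSO vehicle-treated spheroids = 100%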
# Assay context: second compound 1 µM; first compound 10 µM
Outcome (select one): active, inactive

The examples below pair each entry with its known result.
- Molecule: "CC1COCCN1c1cc(-c2ccnn2C)c2ccnc(-c3ccn[nH]3)c2n1 (stereo not drawn) + Cn1nnc2c(C(N)=O)ncn2c1=O"
  Experimental system: "COR L88 complex tumor spheroid viability"
  Class name: "active"
- Molecule: "CC(C)n1c(=O)n(C)c2cnc3cc(F)c(-c4ccc(OCCCN5CCCCC5)nc4)cc3c21 + Cn1nnc2c(C(N)=O)ncn2c1=O"
  Experimental system: "COR L88 complex tumor spheroid viability"
  Class name: "inactive"

Continue with the next molecule.
Check the results log: what was the call for COc1ccc([C@@H](O)c2cc(-c3ncnc4cc(N5CCOCC5)ccc34)c(F)cc2Cl)nn1 + Cn1nnc2c(C(N)=O)ncn2c1=O ?
inactive

----------
# Test system: COR L88 complex tumor spheroid viability
# Test details: Anticancer human tumor COR L88 cell line growth inhibition; active = viability on the fitted dose curve at most 10% of control; inactive = the rest;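 also: compound exposure lasted 7 days before viability readout; percent of DMSO vehicle-treated spheroids = 100%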
# Assay context: second compound 0.03 µM; first compound 3 µM
Outcomes you can answer with include only these: active, inactive

- Compound: "Cc1sc2c(c1C)C(c1ccc(Cl)cc1)=NC(CC(=O)Nc1ccc(O)cc1)c1nnc(C)n1-2 (centres undefined) + CC[C@@]1(O)C(=O)OCc2c1cc1n(c2=O)Cc2cc3c(CN(C)C)c(O)ccc3nc2-1"
  Class name: "active"
- Compound: "Cn1ncnc1[C@H]1c2n[nH]c(=O)c3cc(F)cc(c23)N[C@@H]1c1ccc(F)cc1 + CC[C@@]1(O)C(=O)OCc2c1cc1n(c2=O)Cc2cc3c(CN(C)C)c(O)ccc3nc2-1"
  Class name: "inactive"
- Compound: "O=C(c1cc(Cc2n[nH]c(=O)c3ccccc23)ccc1F)N1CCN(C(=O)C2CC2)CC1 + CC[C@@]1(O)C(=O)OCc2c1cc1n(c2=O)Cc2cc3c(CN(C)C)c(O)ccc3nc2-1"
  Class name: "inactive"

Continue with the compound presented below.
Recorded test outcome, item CNCc1ccc(-c2cc(-c3nc(-c4ccc(S(=O)(=O)C(C)C)cc4)cnc3N)on2)cc1 + CC[C@@]1(O)C(=O)OCc2c1cc1n(c2=O)Cc2cc3c(CN(C)C)c(O)ccc3nc2-1
inactive

----------
# Test system: COR L88 complex tumor spheroid viability
# Test details: Anticancer human tumor COR L88 cell line growth inhibition;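 also: compound exposure lasted 7 days before viability readout; percent of DMSO vehicle-treated spheroids = 100%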
# Assay context: second compound 100 µM; first compound 0.1 µM; hits give low values
Here the recorded viability, T/C is given for each entry.
Could you give me the number in %? Just the number is fine.

Bench note: what viability, T/C did COc1cc(C)[nH]c(=O)c1CN1CCc2c(Cl)cc(C(OC)C3COC3)c(Cl)c2C1=O (stereo unspecified) + Cn1nnc2c(C(N)=O)ncn2c1=O show?
43.5

How about this compound: COc1ccc([C@@H](O)c2cc(-c3ncnc4cc(N5CCOCC5)ccc34)c(F)cc2Cl)nn1 + Cn1nnc2c(C(N)=O)ncn2c1=O
70.8

Another compound: CC(C)n1c(=O)n(C)c2cnc3cc(F)c(-c4ccc(OCCCN5CCCCC5)nc4)cc3c21 + Cn1nnc2c(C(N)=O)ncn2c1=O
69

Then this compound: CC1COCCN1c1cc(-c2ccnn2C)c2ccnc(-c3ccn[nH]3)c2n1 (stereo unspecified) + Cn1nnc2c(C(N)=O)ncn2c1=O
27.8

Okay, and Cc1cc(C)c(CNC(=O)c2cc(-c3ccc(CN4CCOCC4)cc3)cc3c2cnn3C2CCCC2)c(=O)[nH]1 + Cn1nnc2c(C(N)=O)ncn2c1=O ?
62.7

Also need [2H]c1nc(C)nc([2H])c1-c1cc(NC[C@@H](C)c2cccc3c(C(=O)NC)ccnc23)ncn1 + Cn1nnc2c(C(N)=O)ncn2c1=O , thanks.
66.6
